Numbers sourced from paper PMC6891475.

tested on: human normal liver cell (HL-7702); test: MTT cytotoxicity assay, HL-7702 normal cells; format: cell-based; conditions: normal liver cell, mean ± SD from three independent experiments
Experimental Endpoint: IC50 (µM)
Reply with just the number (in µM).

# query: IC50 of entry N.N.[Cl][Pt][Cl] [Cisplatin, cisplatin, reference compound]
20.8

* * *

tested on: human nasopharyngeal carcinoma cell (CNE-2); assay: MTT antiproliferative assay, CNE-2; assay type: cell-based; details: mean ± SD from three independent experiments
Experimental Endpoint: IC50 (µM)
Answer format: numeric, µM implied, no suffix.

What does the record list as IC50 for N.N.[Cl][Pt][Cl] [Cisplatin, cisplatin, reference compound] ?
8.75

* * *

test system: human liver cancer cell (HepG2); assay: MTT antiproliferative assay, HepG2; type: cell-based; details: Homo sapiens, HepG2, mean ± SD from three independent experiments
Experimental Endpoint: log10 IC50 (log10 of the value in µM)
# log10 transformed; quantity=IC50; unit=µM

Quick one: log10 IC50 of CC(C)c1ccc2c(c1)CCC1[C@](C)(C(=O)OCc3cn(Cc4cccc(Cl)c4)nn3)CCC[C@]21C (stereo partly shown) ?
1.35

Which log10 IC50 value belongs to CC(C)c1ccc2c(c1)CCC1[C@](C)(C(=O)OCc3cn(Cc4ccc(Br)cc4)nn3)CCC[C@]21C (stereo partly shown) ?
1.37

Using the record for CC(C)c1ccc2c(c1)CC[C@H]1[C@](C)(C(=O)O)CCC[C@]21C [DHAA, dehydroabietic acid] , report its log10 IC50.
1.91

What does the record list as log10 IC50 for Cc1cccc(Cn2cc(COC(=O)[C@]3(C)CCC[C@]4(C)c5ccc(C(C)C)cc5CCC34)nn2)c1 (stereo partly shown) ?
1.78

Which value of log10 IC50 has been reported for CC(C)c1ccc2c(c1)CCC1[C@](C)(C(=O)OCc3cn(Cc4cccc(Br)c4)nn3)CCC[C@]21C (stereo partly shown) in the records?
1.61

Endpoint output: log10 IC50 of CC(C)c1ccc2c(c1)CCC1[C@](C)(C(=O)OCc3cn(Cc4cccc(F)c4)nn3)CCC[C@]21C (stereo partly shown) . Value?
0.77

* * *

Hi there, I'd appreciate the recorded IC50 for every entry that follows.
Test system: human liver cancer cell (HepG2)
Assay: MTT antiproliferative assay, HepG2
Assay type: cell-based
Conditions: Homo sapiens, HepG2, mean ± SD from three independent experiments
Protocol: The antiproliferative activities of the 16 library members were tested against four human cancer cell lines including human nasopharyngeal carcinoma cell (CNE-2), human liver cancer cell (HepG2), human hepatocellular carcinoma cell (BEL-7402), human cervical cancer cells (HeLa), and human normal liver cell (HL-7702) using MTT assay according the reported literature method. […]

Which IC50 reading was recorded for the compound CC(C)c1ccc2c(c1)CCC1[C@](C)(C(=O)OCc3cn(Cc4cccc([N+](=O)[O-])c4)nn3)CCC[C@]21C (stereo partly drawn) ?
15.8 µM

Entry CC(C)c1ccc2c(c1)CCC1[C@](C)(C(=O)OCc3cn(Cc4ccc(F)cc4)nn3)CCC[C@]21C (stereo partly drawn) : reported IC50 = ?
20.6 µM

Quick one: IC50 for COc1cccc(Cn2cc(COC(=O)[C@]3(C)CCC[C@]4(C)c5ccc(C(C)C)cc5CCC34)nn2)c1 (stereo partly drawn) ?
> 100 µM

* * *

test system: human liver cancer cell (HepG2); assay: MTT antiproliferative assay, HepG2; format: cell-based; conditions: mean ± SD from three independent experiments
Experimental Endpoint: IC50 (µM)
Reply with just the number (in µM).

Query: IC50; subject: N.N.[Cl][Pt][Cl] [Cisplatin, cisplatin, reference compound]
6.42
